Test system: Lefty1
Assay: Lefty1 protein binding to printed compounds – biochemical, small-molecule microarray, 635/667 nm fluorescence, primary screen (AID 1139)
Settings: fluorescence 635/667, higher = more signal
Parameter composite z-score: see the listing below.

Prompt: Record request: composite z-score value, item CCOC(=O)C[C@H]1[C@H](OC(=O)c2ccccc2-c2ccccc2)[C@@H](NC(=O)c2ccc(-c3ccccc3)cc2)c2cc(OCCCO)ccc2N1C(=O)c1ccccc1
Response: 0.935

Prompt: # query: composite z-score of entry CN1C(=O)C2C(C1=O)C1C=C(c3ccc(CO)cc3)C2C(C2CC2)N1Cc1sc2ccccc2c1Cl (stereo not drawn)
Response: 0.453

Prompt: Report composite z-score for CN1C(=O)C2C=CC(C(O)c3ccc(Br)cc3)N(Nc3ccccc3)C2C1=O (stereo not drawn) please.
Response: -1.33

---

Assay: small molecules captured by biotinylated probe aFST – biochemical, small-molecule microarray, fluorescence 635/667, stem cell growth factor project, primary screen (AID 1086);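 further: score merges 667 nm fluorescence with signal-to-noise of each printed compound spot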
Details: higher = more signal
parameter: composite z-score
Note: the reply should be a number with no unit written.

| compound | composite z-score |
| --- | --- |
| [N-]=[N+]=NCc1ccccc1C[C@]1(C(=O)NCC(O)CO)COC(c2ccc(OCCCO)cc2)=N1 (stereo partly drawn) | 1.1 |
| COCCn1c(C(=O)N(C)C)cc2c1C[C@H]1CN(C(=O)c3ccccc3)[C@@](Cc3ccc(F)cc3)(C(=O)OC)[C@@H]21 | 0.576 |
| C=C(CCCC)C(=O)CC[C@@H](OC(=O)c1ccccc1-c1ccccc1C(=O)O)c1ccc(CO)o1 | 0.137 |
| C=C(/C(=C/C[C@@H](OC(C)=O)c1ccc(CO)o1)c1cnc2ccccc2c1)C(C)C | 0.284 |
| CCCC[C@H]1OB(O)C[C@H]2C1=C(C)Cn1c(=O)n(-c3ccccc3)c(=O)n12 | 0.292 |

Prompt: Data request, read-out composite z-score, for C=CCC(OC(C)=O)[C@@H]1[C@@H](N(Cc2ccc(-c3ccccc3)cc2)C(=O)c2ccc(C)cc2)c2cc(OCCCO)ccc2N1C(=O)c1ccc2ccccc2n1 (stereo partly drawn)
Response: 0.13

Prompt: Which measured composite z-score value corresponds to NC(=O)NCC#Cc1ccc2c(c1)[C@]1(C(=O)N2)[C@H](c2ccccc2OCCO)N2[C@H](c3ccccc3)[C@H](c3ccccc3)OC(=O)[C@H]2[C@@H]1C(=O)N1CCCCCCC1 ?
Response: 3.41

Prompt: Returns the measured composite z-score for the input compound. Input: C[C@H]1C2[C@H](Cc3ccccc3)NC(=O)[C@]23C(=O)N[C@H](Cc2ccccc2)C(=O)N[C@H](Cc2ccccc2)C(=O)NC/C=C/CCC/C=C/C3[C@@H]2O[C@]12C (stereo partly drawn)
Response: 0.22

---

Assay: budding yeast growth modifiers under rapamycin – strain BY4716, OD600, 96 h, primary screen (AID 1091); further: test concentration not given here
Conditions: S. cerevisiae BY4716 + rapamycin, higher = more signal, called active from +8 up or from −8 down
Active and inactive are the calls of the source.
parameter: z-score

Prompt: # z-score lookup, item COc1ccc(C#Cc2ccc3c(c2)[C@]2(C(=O)N3)[C@H](C(=O)N3CCc4cc(OC)c(OC)cc4C3)[C@H]3C(=O)O[C@H](c4ccccc4)[C@H](c4ccccc4)N3[C@@H]2c2ccc(OCCO)cc2)cc1
Response: 6.17 (inactive)

Prompt: I am curious: what z-score value has been reported for CCCC[C@@H]1C[C@H]1[C@@H](NC(=O)c1ccccc1)c1ccccc1 ?
Response: 1.54 (inactive)

Prompt: Tell me the measured z-score of O=c1cccc(-c2cccc3ccccc23)o1 , please.
Response: 4.08 (inactive)

Prompt: Bench note: what z-score did COCC1C2CC[C@H]3C(OCc4ccc(F)cc4C(F)(F)F)OC[C@]4(C)[C@H]3C2=C(CN4C(=O)OC(C)(C)C)[C@H](C)C1COC (some centres undefined) show?
Response: -0.2 (inactive)

Each recorded value in this set is attributed to PubChem BioAssay.
